Each recorded value in this set is attributed to patent US20080026077A1.

# ASSAY_PROTOCOL: Oral gavage of zanamivir with various BAC analogs, plasma zanamivir
# Assay type: in vivo, Male Swiss CFW mice
# TEST_CONTEXT: male, Swiss CFW, mouse, plasma, fasted mice, 1 mg/kg zanamivir, BAC 1x equal molar
PARAMETER: concentration at 30 min

Query (molecule): CC(=O)N[C@H]1[C@H]([C@H](O)[C@H](O)CO)OC(C(=O)O)=C[C@@H]1N=C(N)N [Zanamivir, zanamivir, reference compound] ; field requested: concentration at 30 min 55 ng/mL

###

# ASSAY_PROTOCOL: Critical micellar concentration (CMC) of BACs, dye solubilization method
# Assay type: physicochemical
# TEST_CONTEXT: DPH dye solubilization, 50 mM Tris buffer pH 8.0
Marks after values point to notes of the source that are not given here. No end group written: not given here.
Examples of substances with documented Calculated CMC concentration follow.

Worked set:
N-E9 motif of chenoxycholamide (RAWARAWAR; also: chenodeoxycholamide bile acid conjugate, site not given here) = 1.2 mM
C8: chendoxycholamide bile acid conjugate, peptide Z = -RRARRARR (not fully specified (N-terminus); printed as -RRARRARR; also: chenodeoxycholamide bile acid conjugate, attachment not placed) = 4.4 mM
D9: chendoxycholamide bile acid conjugate, peptide Z = -RARARARAR (not fully specified (N-terminus); printed as -RARARARAR; also: chenodeoxycholamide bile acid conjugate, attachment not placed) = 1.7 mM

Query (substance): B7: chendoxycholamide bile acid conjugate, peptide Z = -RRRARRR (not fully specified (N-terminus); printed as -RRRARRR; also: chenodeoxycholamide bile acid conjugate, attachment not placed) ; field requested: Calculated CMC concentration >5.0* mM
